Please provide measured pKi for the entries that follow.
Target: type II dehydroquinase from Streptomyces coelicolor (Streptomyces coelicolor)
Sequence (P15474 whole entry): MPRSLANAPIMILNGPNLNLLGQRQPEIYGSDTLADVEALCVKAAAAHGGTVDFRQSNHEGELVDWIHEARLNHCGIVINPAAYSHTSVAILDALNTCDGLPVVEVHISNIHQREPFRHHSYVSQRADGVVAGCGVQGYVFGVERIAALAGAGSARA
Assay: S. coelicolor DHQase enzyme inhibition in vitro
Type: biochemical
For clarity, pKi is expressed as the negative log10 of concentration in mol/L.

Any idea what pKi came out for O=C(O)[C@H](Cc1ccccc1)N1C(=O)/C(=C/c2cccc3ccccc23)SC1=S on type II dehydroquinase from Streptomyces coelicolor (Streptomyces coelicolor)?
5.40

Again, but for CC[C@H](C)NC(=O)c1ccccc1NC(=O)Cc1c(F)cccc1Cl
3.83

Again, but for CCOC(=O)C1=C(CSc2nc3ccccc3[nH]2)NC(=O)N[C@H]1C
3.76

Again, but for O=C(Cn1nc2ccccn2c1=O)N(Cc1cccs1)Cc1cccs1
4.68

Again, but for CC[C@H](C)NC(=O)c1ccccc1NC(=O)Cc1ccccc1
3.83

Again, but for CC(C)N(C(=O)COC(=O)c1ccc(N)c([N+](=O)[O-])c1)C(C)C
3.70

###

Please provide measured Ki for the entries that follow.
Target: type II dehydroquinase from Mycobacterium tuberculosis (Mycobacterium tuberculosis)
Sequence (P9WPX7 whole entry): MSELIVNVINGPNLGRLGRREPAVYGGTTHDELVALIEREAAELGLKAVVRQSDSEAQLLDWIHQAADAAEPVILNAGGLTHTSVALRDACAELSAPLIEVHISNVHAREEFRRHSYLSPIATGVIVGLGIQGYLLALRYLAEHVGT
Assay: M. tuberculosis DHQase enzyme inhibition in vitro
Format: biochemical
Conditions: Ki calculated from measured IC50, read-out: Ki (Mtb; μM)
Respond with the bare value in µM.

Endpoint output: Ki of CC(C)N(C(=O)COC(=O)c1ccc(N)c([N+](=O)[O-])c1)C(C)C . Value?
192

Again, but for CC[C@H](C)NC(=O)c1ccccc1NC(=O)Cc1c(F)cccc1Cl
150

Again, but for CCOC(=O)C1=C(CSc2nc3ccccc3[nH]2)NC(=O)N[C@H]1C
159

Again, but for CC[C@H](C)NC(=O)c1ccccc1NC(=O)Cc1ccccc1
167

Again, but for COc1ccc(CC(=O)Nc2cc(C(F)(F)F)ccc2N(C)C)cc1F
166
